Biological target: Aldo-keto reductase family 1 member A1 (Bos taurus)
Sequence (Q3ZCJ2 2-325 limits assumed): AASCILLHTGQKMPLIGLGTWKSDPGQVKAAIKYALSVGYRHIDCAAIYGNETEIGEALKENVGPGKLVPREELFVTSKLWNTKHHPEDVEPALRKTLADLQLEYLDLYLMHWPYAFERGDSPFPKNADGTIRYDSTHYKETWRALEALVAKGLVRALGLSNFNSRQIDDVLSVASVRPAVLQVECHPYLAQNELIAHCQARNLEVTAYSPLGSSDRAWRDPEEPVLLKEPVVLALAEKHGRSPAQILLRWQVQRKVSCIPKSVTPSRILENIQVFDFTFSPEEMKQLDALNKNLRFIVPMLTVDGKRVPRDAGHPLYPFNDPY
Assay: The compound was tested for Inhibitory effect against Aldose reductase 1 in bovine kidneys
MEASUREMENT LABEL: IC50 (µM)

Below: 3 compounds and their reported IC50.
Reported IC50 for `O=c1cc(Cc2ccccc2)oc2cc(O)ccc12` was 39.2

Reported IC50 for `COc1ccc(Cc2cc(=O)c3ccc(O)cc3o2)cc1` was 16.6

Reported IC50 for `O=C(O)Cc1ccc2c(=O)cc(Cc3ccc(O)cc3)oc2c1` was 128

P = O=c1ccoc2cc(O)ccc12
Q = O=c1cc(Cc2ccc(O)cc2)oc2cc(O)ccc12
QUERY: Hi there, can you help? I need to know whether P or Q has lower measured IC50. Your choice should be expressed through its label.
RESULT: Q
(Q: 16.8 µM, P: 114 µM)

====

Molecular target: Aldo-keto reductase family 1 member B1 (Bos taurus) (UniProt P16116)
Assay: Compound was tested for Ratio of IC50(ALR1)/(ALR2)
MEASUREMENT LABEL: Ratio

Reported Ratio for `O=C(O)Cc1ccc2c(=O)cc(Cc3ccc(O)cc3)oc2c1` was 98.5

1 = COc1ccc(Cc2cc(=O)c3ccc(O)cc3o2)cc1
2 = O=c1ccoc2cc(O)ccc12
QUERY: Return label of the item with the larger Ratio. Candidates: 1 , 2 . Your choice should be expressed through its label.
RESULT: 1
(1: 2.4, 2: 1)

====

Target: Aldo-keto reductase family 1 member B1 (Bos taurus) (UniProt P16116)
Test: The compound was tested for Inhibitory effect uM
Settings: concentration not given here
MEASUREMENT LABEL: inhibition (%)

Reported inhibition for `O=c1cc(-c2ccccc2)oc2cccc(O)c12` was 0

Reported inhibition for `COc1ccc2c(=O)cc(-c3ccccc3)oc2c1` was 32

1 = COc1ccc(Cc2cc(=O)c3ccc(OC)cc3o2)cc1
2 = COc1ccc2c(=O)cc(Cc3ccc(O)cc3)oc2c1
QUERY: Hi there, can you help? I need to know whether 1 or 2 has lower measured inhibition. Your choice should be expressed through its label.
RESULT: 1
(1: 0%, 2: 37%)

P = O=c1c(Cc2ccc(-c3ccccc3)cc2)c(Cc2ccc(O)cc2)oc2cc(O)ccc12
Q = COc1ccc2oc(Cc3ccc(O)cc3)cc(=O)c2c1
QUERY: Return label of the item with the larger inhibition. Candidates: P , Q . Your choice should be expressed through its label.
RESULT: Q
(Q: 40%, P: 0%)

====

Target: Aldo-keto reductase family 1 member B1 (Bos taurus, UniProt P16116)
Experiment: Inhibition of Aldose reductase 2 of bovine lens
MEASUREMENT LABEL: IC50 (µM)

Reported IC50 for `COc1ccc(Cc2cc(=O)c3ccc(O)cc3o2)cc1` was 7.01

Reported IC50 for `O=c1cc(CCc2ccc(O)cc2)oc2cc(O)ccc12` was 41

Reported IC50 for `O=C(O)Cc1ccc2c(=O)cc(Cc3ccc(O)cc3)oc2c1` was 1.3

Reported IC50 for `O=c1cc(Cc2ccc3ccccc3c2)oc2cc(O)ccc12` was 22.3

Reported IC50 for `O=c1cc(Cc2ccccc2)oc2cc(O)ccc12` was 6.61

Reported IC50 for `O=c1c(Cc2ccccc2)c(Cc2ccc(O)cc2)oc2cc(O)ccc12` was 14.2

Reported IC50 for `O=c1cc(C(c2ccccc2)c2ccccc2)oc2cc(O)ccc12` was 10.9

Reported IC50 for `O=C(O)c1ccc2c(=O)cc(Cc3ccc(O)cc3)oc2c1` was 10.9

Reported IC50 for `O=c1cc(CCCc2ccc(O)cc2)oc2cc(O)ccc12` was 29.4

Reported IC50 for `Cc1oc2cc(O)ccc2c(=O)c1Cc1ccc(O)cc1` was 85.7

1 = O=c1ccoc2cc(O)ccc12
2 = O=c1cc(Cc2ccc(O)cc2)oc2ccc(O)cc12
QUERY: Hi there, can you help? I need to know whether 1 or 2 has lower measured IC50. Your choice should be expressed through its label.
RESULT: 2
(2: 13.1 µM, 1: 137 µM)
